# Measurement Protocol: Equilibrium solubility, shake flask method, HPLC of KTZ
# Type: physicochemical
# Protocol Conditions: ultrapure water, 37.0 °C, 48 h, mean ± SD, triplicate
Readout Type: Equilibrium solubility, concentration of KTZ (mg/mL)
Could you give me the number in mg/mL? Just the number is fine.

Here are 3 molecules together with their reported answers.
Molecule	Recorded Measurement
CC(=O)N1CCN(c2ccc(OCC3COC(Cn4ccnc4)(c4ccc(Cl)cc4Cl)O3)cc2)CC1.O=C(O)c1c(O)cccc1O (racemic) [KTZ−26DHB]	0.13913
CC(=O)N1CCN(c2ccc(OCC3COC(Cn4ccnc4)(c4ccc(Cl)cc4Cl)O3)cc2)CC1.O=C(O)c1ccc(O)c(O)c1 (racemic) [KTZ−PCA-II]	0.38634
CC(=O)N1CCN(c2ccc(OCC3COC(Cn4ccnc4)(c4ccc(Cl)cc4Cl)O3)cc2)CC1.O=C(O)CCCC(=O)O (racemic) [KTZ−GTA]	2.16556

Prompt: Tell me the measured Equilibrium solubility, concentration of KTZ of CC(=O)N1CCN(c2ccc(OCC3COC(Cn4ccnc4)(c4ccc(Cl)cc4Cl)O3)cc2)CC1.O=C(O)c1cc([N+](=O)[O-])cc([N+](=O)[O-])c1 (racemic) [KTZ−35DNB] , please.
Completion: 0.19167

====

# Measurement Protocol: Equilibrium solubility, shake flask method, HPLC of KTZ
# Type: physicochemical
# Protocol Conditions: aqueous buffer, thermodynamic from solid; pH 4.5 acetate buffer, 37.0 °C, 48 h, mean ± SD, triplicate
Readout Type: solubility thermodynamic at 48 h (µg/mL)
Express the result in µg/mL but write the number alone.

Prompt: Please look up its solubility thermodynamic at 48 h: CC(=O)N1CCN(c2ccc(OCC3COC(Cn4ccnc4)(c4ccc(Cl)cc4Cl)O3)cc2)CC1 (stereo not shown) [KTZ, reference compound]
Completion: 239

====

# Measurement Protocol: Equilibrium solubility, shake flask method, HPLC of KTZ
# Assay type: physicochemical
# Protocol Conditions: 37 °C, thermodynamic from solid; distilled water (abstract); read-out: Solubility of ketoconazole in distilled water
Readout Type: solubility at 48 h (µg/mL)
Answer with a number only, understood to be in µg/mL.

Prompt: May I ask what solubility at 48 h has been recorded for CC(=O)N1CCN(c2ccc(OCC3COC(Cn4ccnc4)(c4ccc(Cl)cc4Cl)O3)cc2)CC1 (stereo not shown) [KTZ, reference compound] ?
Completion: 1.2

====

# Measurement Protocol: pKa values and ΔpKa rule
# Assay type: physicochemical
# Source text: To understand the crystal nature of the obtained solid forms (a salt or a cocrystal), three commonly used principles have been summarized, such as the ΔpKa rule, the position of the hydroxyl-H atom retrieved from SCXRD data, and the structural characteristics of interacting groups. […]
Readout Type: ΔpKa Values between CCF and KTZ
// return just the number, without any unit appended

Prompt: What value of measured ΔpKa Values between CCF and KTZ is listed for CC(=O)N1CCN(c2ccc(OCC3COC(Cn4ccnc4)(c4ccc(Cl)cc4Cl)O3)cc2)CC1.O=C(O)CCCC(=O)O (racemic) ?
Completion: 2.2

Prompt: Same read-out for CC(=O)N1CCN(c2ccc(OCC3COC(Cn4ccnc4)(c4ccc(Cl)cc4Cl)O3)cc2)CC1.O=C(O)c1cc([N+](=O)[O-])cc([N+](=O)[O-])c1 (racemic) ?
Completion: 3.7

Prompt: Query CC(=O)N1CCN(c2ccc(OCC3COC(Cn4ccnc4)(c4ccc(Cl)cc4Cl)O3)cc2)CC1.O=C(O)c1c(O)cccc1O (racemic) next
Completion: 3.9

Prompt: Okay, and CC(=O)N1CCN(c2ccc(OCC3COC(Cn4ccnc4)(c4ccc(Cl)cc4Cl)O3)cc2)CC1.O=C(O)c1ccc(O)c(O)c1 (racemic) ?
Completion: 2.0
